Here the recorded melting point is given for each entry.

Solved cases (4 shown):
molecule | property-label | observed-measurement
O=S1N=C(NCCCN(Cc2cccs2)c2ccccn2)C(NCc2ccncc2)=N1 (stereo unspecified) | melting point | 129 to 130 °C
O=C(NCc1cccnc1)c1ccc2n1Cc1ccccc1N(C(=O)c1ccccc1)C2 | melting point | 197 °C
O=C(C1Cc2ccccc2N1c1ncccn1)N1CCCC1 (stereo unspecified) | melting point | 220 to 223 °C
CCCCCCC(CO)n1cnc(C(N)=O)c1 (stereo unspecified) | melting point | 97.5 to 100 °C

Give the reported value of melting point for this record: CC(N)Cc1ncc(O)c(C(=O)c2ccccc2)c1C(=O)c1ccccc1 (stereo unspecified)
110 to 112 °C

Entry COc1ccc(C2=NN(c3csc(C)n3)C(=O)[C@H]3CCCC[C@@H]23)cc1OC (relative stereo) needs its melting point filled in; supply it.
135 to 137 °C

Answer with the recorded melting point of COc1ccc(-c2cc(=S)[nH]nc2-c2ccc(OC)c(F)c2)cc1 only.
222 to 223 °C

Quick one: give measured melting point for O=Cc1cccc(C=Cc2ccc3ccccc3n2)c1
78.6 to 80.8 °C

Using the record for Cc1noc(C)c1S(=O)(=O)n1c(=O)oc2ccccc21 , state its measured melting point.
133 to 135 °C

Consider the molecule COc1ccc2c(C3OC(=O)NC3=O)c(OC)ccc2c1 (stereo unspecified) and give its recorded melting point.
175 to 180 °C

Give the reported melting point for this molecule. COc1ccc(C(=O)OC2C=C(C)C(=O)CC(C)(C)C2OC(C)=O)cc1 (stereo unspecified)
93 to 94 °C

Answer with the recorded melting point of Clc1ccc(NC2CCC3(CCNCC3)CC2)cc1Cl only.
128 to 132 °C

Give melting point for the following molecule: COc1cc(OC)nc(NC(=O)NS(=O)(=O)c2cscc2C)n1
175 to 178 °C

Name the recorded melting point of the molecule listed here: CSc1ccc(C(=O)Cc2ccccc2)cc1F
71 to 72 °C

Check the records and state melting point for COc1ccccc1S(=O)C1CC(=O)N1CC(=O)CCc1ccccc1 (stereo unspecified)
129 to 131 °C

Return reported melting point. Input molecule: CCC(C)(O)CNc1c(N)c(Cl)nc2ccccc12 (stereo unspecified)
99 to 101 °C

Answer with the recorded melting point of Cc1ccc(S(=O)(=O)c2ccc(N3CCN(C)CC3)cc2N)cc1 only.
148 to 151 °C

Tell me measured melting point for Nc1ccccc1NC(=O)c1ccc(CNC(=O)c2[nH]c(-c3ccsc3)cc2-c2ccc(O)cc2)cc1 please.
135 to 137 °C

Return the recorded melting point value; entry: Cc1nsc(NC(=O)C(C)c2ccc(O)c(N)c2)c1Cl (stereo unspecified)
222 to 223 °C

Quickly give me recorded melting point for CCc1nn2c(c1Oc1cc(Cl)cc(Cl)c1)CN(Cc1ccc(C#N)cc1)CC2
149 to 150 °C

Hello, please tell me recorded melting point for this one: O=C(Nc1cccnn1)N1CCN(c2nc(-c3cccc(F)c3F)cs2)CC1
215 to 216 °C
